# experimental_target: Parascaris sp. ACR-26/27 M-AChR (Parascaris equorum, UniProt A0A0U2ES47+A0A0U2ES58)
# Sequence (A0A0U2ES58 entry or part of it): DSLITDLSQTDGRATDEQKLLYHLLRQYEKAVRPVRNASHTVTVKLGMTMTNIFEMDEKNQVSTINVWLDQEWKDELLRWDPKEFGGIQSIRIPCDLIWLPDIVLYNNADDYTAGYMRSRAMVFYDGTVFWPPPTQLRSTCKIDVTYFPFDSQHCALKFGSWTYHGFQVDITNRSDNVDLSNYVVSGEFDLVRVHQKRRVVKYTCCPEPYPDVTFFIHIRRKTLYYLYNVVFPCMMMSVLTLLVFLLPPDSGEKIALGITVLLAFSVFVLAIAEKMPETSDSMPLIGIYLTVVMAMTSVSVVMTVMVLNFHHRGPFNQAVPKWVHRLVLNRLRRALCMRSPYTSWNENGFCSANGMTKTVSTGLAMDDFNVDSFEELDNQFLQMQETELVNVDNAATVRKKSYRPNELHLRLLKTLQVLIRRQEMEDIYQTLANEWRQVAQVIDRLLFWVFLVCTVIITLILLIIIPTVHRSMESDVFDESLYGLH
# Sequence (A0A0U2ES47 entry or part of it): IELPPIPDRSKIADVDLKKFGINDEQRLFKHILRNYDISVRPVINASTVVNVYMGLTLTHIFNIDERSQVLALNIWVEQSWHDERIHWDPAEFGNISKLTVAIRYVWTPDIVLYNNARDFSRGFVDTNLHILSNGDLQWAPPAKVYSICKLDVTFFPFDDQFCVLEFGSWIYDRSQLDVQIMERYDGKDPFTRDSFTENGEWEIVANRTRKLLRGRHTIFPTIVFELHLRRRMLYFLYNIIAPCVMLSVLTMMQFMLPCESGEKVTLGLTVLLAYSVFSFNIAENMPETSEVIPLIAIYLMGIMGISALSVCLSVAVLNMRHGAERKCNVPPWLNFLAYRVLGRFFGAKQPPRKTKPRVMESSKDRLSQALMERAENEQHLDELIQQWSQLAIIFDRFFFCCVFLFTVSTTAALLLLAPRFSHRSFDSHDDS
# protocol_details: Two-electrode voltage-clamp on Parascaris sp. ACR-26/27 M-AChR expressed in Xenopus laevis oocytes
# Type: cell-based
# test_settings: ACh EC50, continued perfusion of 100 µM carvacrol; n = 5
quantity_measured: EC50 (µM)
Kindly answer with a numeric value in µM, unit omitted.

Query: Identify EC50 associated with the compound CC(=O)OCC[N+](C)(C)C [ACh, Acetylcholine chloride]
Response: 12.2

* * *

# experimental_target: UniProt A0A3S9VMQ8
# protocol_details: Two-electrode voltage-clamp on Parascaris sp. ACR-16 N-AChR expressed in Xenopus oocytes
# Assay type: cell-based
# test_settings: ACh EC50, without carvacrol; n = 6
quantity_measured: pEC50
Hey, just a heads up that pEC50 is the negative log base 10 of the concentration in molar.

Query: Identify pEC50 associated with the compound CC(=O)OCC[N+](C)(C)C [ACh, Acetylcholine chloride]
Response: 5.19

* * *

# experimental_target: Parascaris sp. ACR-26/27 M-AChR (Parascaris equorum, UniProt A0A0U2ES47+A0A0U2ES58)
# protocol_details: Two-electrode voltage-clamp on Parascaris sp. ACR-26/27 M-AChR expressed in Xenopus laevis oocytes
# Assay type: cell-based
# test_settings: ACh log EC50, absence of carvacrol; log of EC50 in µM; n = 6
quantity_measured: EC50

Query: Identify EC50 associated with the molecule CC(=O)OCC[N+](C)(C)C [ACh, Acetylcholine chloride]
Response: 25 µM

* * *

# experimental_target: Parascaris sp. ACR-26/27 M-AChR (Parascaris equorum, UniProt A0A0U2ES47+A0A0U2ES58)
# protocol_details: Two-electrode voltage-clamp on Parascaris sp. ACR-26/27 M-AChR expressed in Xenopus laevis oocytes
# Format: cell-based
# test_settings: ACh EC50, absence of carvacrol; normalized to 100 µM ACh; n = 6
quantity_measured: pEC50
Hey, just a heads up that pEC50 is the negative log base 10 of the concentration in molar.

Query: State pEC50 (Parascaris sp. ACR-26/27 M-AChR (Parascaris equorum, UniProt A0A0U2ES47+A0A0U2ES58)) of CC(=O)OCC[N+](C)(C)C [ACh, Acetylcholine chloride] .
Response: 4.60

* * *

# experimental_target: UniProtKB A0A3S9VMQ8
# protocol_details: Two-electrode voltage-clamp on Parascaris sp. ACR-16 N-AChR expressed in Xenopus oocytes
# Assay type: cell-based
# test_settings: ACh log EC50, presence of 300 µM carvacrol; n = 10
quantity_measured: EC50 (µM)
Kindly answer with a numeric value in µM, unit omitted.

Query: Identify EC50 associated with the compound CC(=O)OCC[N+](C)(C)C [ACh, Acetylcholine chloride]
Response: 8.18

* * *

# experimental_target: Parascaris sp. ACR-16 N-AChR (Parascaris equorum, UniProt A0A3S9VMQ8)
# Sequence (A0A3S9VMQ8 entry or part of it): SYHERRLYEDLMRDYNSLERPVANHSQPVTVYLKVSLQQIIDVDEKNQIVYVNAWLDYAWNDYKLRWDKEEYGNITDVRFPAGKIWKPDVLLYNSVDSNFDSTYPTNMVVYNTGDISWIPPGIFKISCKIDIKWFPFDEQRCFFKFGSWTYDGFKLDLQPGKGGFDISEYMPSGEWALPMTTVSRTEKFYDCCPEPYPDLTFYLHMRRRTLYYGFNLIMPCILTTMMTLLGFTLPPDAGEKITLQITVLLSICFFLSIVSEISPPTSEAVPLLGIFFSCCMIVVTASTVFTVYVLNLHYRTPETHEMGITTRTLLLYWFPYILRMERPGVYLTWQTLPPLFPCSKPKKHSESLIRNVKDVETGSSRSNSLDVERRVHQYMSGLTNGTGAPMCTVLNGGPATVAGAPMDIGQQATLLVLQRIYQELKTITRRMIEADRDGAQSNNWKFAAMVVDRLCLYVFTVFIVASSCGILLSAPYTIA
# protocol_details: Two-electrode voltage-clamp on Parascaris sp. ACR-16 N-AChR expressed in Xenopus oocytes
# Assay type: cell-based
# test_settings: ACh log EC50, presence of 100 µM carvacrol; n = 6
quantity_measured: EC50

Query: Identify EC50 associated with the molecule CC(=O)OCC[N+](C)(C)C [ACh, Acetylcholine chloride]
Response: 5.92 µM
